B1: CPEB3 Ribozyme (parent)
chain: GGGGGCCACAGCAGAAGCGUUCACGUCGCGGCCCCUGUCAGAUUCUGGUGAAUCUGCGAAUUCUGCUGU

Variants of: B1
Assay: self-cleavage, relative activity (ratio to wild type); higher = more cleavage; co-transcriptional
Parameter: self-cleavage. Scope: all listed entries.
Please reply with the number alone, leaving off any unit.

Consider the following illustrative entries.
U26A U44C | 0.768
A15C A51U | 0.826
G5C U44G | 0.203
C9U U62C | 0.966
A23C C35A | 0.26

Below: the item to evaluate.
Lookup: Can you look up the measured self-cleavage of A15C A51G for me?
Found: 0.897
